Provenance of the data: ChEMBL document CHEMBL5058577

Measured Population Mitochondria Different-Phenotype (%) accompanies every entry in the list below.
tested on: Fibroblast; experiment: Multiplex assay against human fibroblast; format: toxicity, cell-based; details: 24 h, 10 µM, compound concentration 10 uM, replicate 1
Property: Population Mitochondria Different-Phenotype (%)

>  <Compound>
Cc1noc(-c2ccc(-c3ccc(CC(=O)O)cc3)cc2)c1NC(=O)O[C@H](C)c1ccccc1Cl

>  <Unit Tag>
%

>  <Measured Result>
7

$$$$
>  <Compound>
CCCCC1=NC2(CCCC2)C(=O)N1Cc1ccc(-c2ccccc2-c2nnn[nH]2)cc1

>  <Unit Tag>
%

>  <Measured Result>
7

$$$$
>  <Compound>
COc1cccc2c1c(NS(=O)(=O)c1ccc(Cl)s1)nn2Cc1cccc(CNC(=O)C(C)(C)O)c1

>  <Unit Tag>
%

>  <Measured Result>
7

$$$$
>  <Compound>
CC(/C=C1\SC(=S)N(CCCC(=O)Nc2ccc(C(=O)O)c(O)c2)C1=O)=C\c1ccccc1

>  <Unit Tag>
%

>  <Measured Result>
4

$$$$
>  <Compound>
O=C(CCCc1ccccc1)Nc1nc2ccccc2c(=O)s1

>  <Unit Tag>
%

>  <Measured Result>
3

$$$$
>  <Compound>
O=C1[C@H](Cc2ccc(O)cc2)N2C(=O)CCN(C(=O)NCc3ccccc3)[C@H]2CN1Cc1cccc2ccccc12

>  <Unit Tag>
%

>  <Measured Result>
44

$$$$
>  <Compound>
Br.CS(=O)(=O)Nc1c(O)ccc2c1CCCC2C1=NCCN1 (stereo not drawn)

>  <Unit Tag>
%

>  <Measured Result>
2

$$$$
>  <Compound>
CCc1cc2cc(NS(=O)(=O)c3ccc(C#N)cc3)ccc2n(CC)c1=O

>  <Unit Tag>
%

>  <Measured Result>
6

$$$$
